- system: Serine/threonine-protein kinase 3 (Homo sapiens, UniProt Q13188, D109A/Y101F)
- Sequence (Q13188 whole entry Y101F/D109A): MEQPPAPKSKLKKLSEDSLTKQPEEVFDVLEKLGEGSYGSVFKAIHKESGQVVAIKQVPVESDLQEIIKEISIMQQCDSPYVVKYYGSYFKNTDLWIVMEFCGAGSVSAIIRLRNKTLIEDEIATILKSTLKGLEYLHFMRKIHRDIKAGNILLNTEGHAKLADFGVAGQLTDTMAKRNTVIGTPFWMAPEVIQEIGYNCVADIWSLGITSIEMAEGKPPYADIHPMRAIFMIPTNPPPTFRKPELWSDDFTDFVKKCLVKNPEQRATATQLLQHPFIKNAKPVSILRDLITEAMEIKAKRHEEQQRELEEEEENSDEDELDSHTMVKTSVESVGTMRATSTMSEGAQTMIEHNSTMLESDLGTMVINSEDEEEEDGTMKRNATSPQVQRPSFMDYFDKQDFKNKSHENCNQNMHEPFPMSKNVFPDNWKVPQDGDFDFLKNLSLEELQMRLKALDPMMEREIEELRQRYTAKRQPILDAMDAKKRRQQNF
recorded-endpoint: IC50 (µM)

>>> val("CN1C(=O)c2sccc2N(C)c2nc(Nc3ccc(S(N)(=O)=O)cc3)ncc21")
1.68

---

- system: Serine/threonine-protein kinase 4 (Homo sapiens, UniProt Q13043)
- Sequence (Q13043 whole entry): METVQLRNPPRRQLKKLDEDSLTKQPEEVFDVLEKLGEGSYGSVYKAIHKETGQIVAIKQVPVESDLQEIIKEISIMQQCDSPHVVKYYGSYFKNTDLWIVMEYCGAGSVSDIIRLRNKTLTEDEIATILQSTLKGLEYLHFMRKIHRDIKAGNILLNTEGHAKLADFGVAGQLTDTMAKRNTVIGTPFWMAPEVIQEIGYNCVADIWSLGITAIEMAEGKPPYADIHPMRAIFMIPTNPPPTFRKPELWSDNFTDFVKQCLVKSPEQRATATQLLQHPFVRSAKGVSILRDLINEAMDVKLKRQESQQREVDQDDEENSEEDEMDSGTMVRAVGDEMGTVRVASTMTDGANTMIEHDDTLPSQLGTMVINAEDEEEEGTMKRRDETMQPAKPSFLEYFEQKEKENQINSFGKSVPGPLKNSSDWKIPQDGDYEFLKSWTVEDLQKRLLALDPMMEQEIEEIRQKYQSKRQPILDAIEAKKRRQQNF
- assay-name: Inhibition of recombinant His-tagged full-length MST1 (unknown origin) expressing in Escherichia coli assessed as MOB1a phosphorylation level incubated for 30 min in the presence of 300 uM ATP by immunoblot analysis
pIC50: −log10 of the molar value.
recorded-endpoint: pIC50

>>> val("CN1C(=O)c2sccc2N(C)c2nc(Nc3ccc(S(N)(=O)=O)cc3)ncc21")
5.39
